# Test system: A549/ATCC NSCLC
# test-details: NCI-60 one-dose screen, 48 h
# conditions: 10 µM unless noted
Compounds without any hit were thinned out: in the full panel of roughly 83,000, 20% have a hit. Active and inactive are the calls of the source. How the source made its calls: active means growth percent below 10; inactive means the rest.
# output must be one of 1.0 (active), 0.0 (inactive)

O=C1NC(=C(Cl)Cl)/C(=N/S(=O)(=O)NCCc2c[nH]c3ccccc23)N1 = 0.0

Now look at this entry.
Request: For this compound, state the assay outcome: `O=C(CSc1nc2ccc([N+](=O)[O-])cc2[nH]1)Nc1ccc(Br)cc1`
Response: 0.0

* * *

# Test system: PC-3 prostate
# test-details: NCI-60 one-dose screen, 48 h (100 = growth as untreated, 0 = no growth, -100 = all killed)
# conditions: 10 µM unless noted
This is part of a sample that, as a whole, favours compounds with a hit. Of some 83,000 tested, about 20% had one in any assay.
Categorized via growth: b0: < 50%; b1: ≥ 50% and < 80%; b2: ≥ 80%

A selection of reference data follows.
COc1ccc2c(c1)c(-c1nc(-c3cn(C)c4ncccc34)cs1)cn2CCO = b1
c1ccc(CCc2ccccc2-c2cc(-c3ccccc3)on2)cc1 = b2
CCCCCCCCn1ccc2cc(NC(=O)Cn3cc(CN4CCC(C)CC4)nn3)ccc21 = b0
CCN=C1C=CC(=C(c2ccc(N(C)C)cc2)c2ccc(N(C)C)cc2)c2ccccc21 = b0
Cc1cccc(NC(=O)CSc2nc3ccc([N+](=O)[O-])cc3[nH]2)c1 = b1
CCCCCCCCCCCCCCCCCCOc1ccccc1CC(=O)OCC[N+]1(C)CCOCC1 = b0

Request: Exam item: assign `CC(C)[C@@]12C[C@@H](OC(=O)COC(=O)c3ccccc3)[C@@](C)(O1)[C@@H]1CC[C@@H](C)[C@H]1[C@@H]2OC(=O)/C=C/c1ccccc1` to the correct category.
Response: b1

Request: Exam item: assign `Cc1nc2sc(C(=O)Nc3ccccc3)c(N)c2cc1C(=O)/C=C/c1ccccc1` to the correct category.
Response: b0

Request: Exam item: assign `NS(=O)(=O)c1ccc(N/C=C/C(=O)c2cc3ccccc3oc2=O)cc1` to the correct category.
Response: b2

Request: Exam item: assign `CCCCn1sc(=O)n(Cc2ccc(CNC(=O)OCc3ccc4c(Cl)cc(Cl)c(O)c4n3)cc2)c1=O` to the correct category.
Response: b1

* * *

Quick reference: growth of the listed items.
# Test system: SK-MEL-5 melanoma
# test-details: NCI-60 one-dose screen, 48 h (100 = growth as untreated, 0 = no growth, -100 = all killed)
# conditions: 10 µM unless noted
The panel holds about 83,000 compounds, 20% with a hit somewhere; the sample as a whole holds those more often.
Please state the figure in %; there is no need to write the unit.

Below, each entry is followed by its recorded growth result.
O=C(O)CCCn1c(SCc2c(Cl)cccc2Cl)nc2ccsc2c1=O = 16.8
CCNC(=O)Oc1ccc(/C(=C(/C)Cc2ccc(OC)cc2)c2ccc(OCCN3CCCCCC3)cc2)cc1 = 66.2
CC(C(=O)O)n1c(O)c(C=Nc2cccnc2)sc1=S (stereo unspecified) = 95.5
Cc1ccc(C)c2c1C(O)(C#Cc1ccccc1)c1ccccc1C2(O)C#Cc1ccccc1 (stereo unspecified) = 36.8
CC(=O)Nc1c(Cl)cc(Cl)c2c1Cc1cc([N+](=O)[O-])ccc1-2 = 103
Cc1ncc(C(=O)Nc2ccc(CN3CCN(C)CC3)c(C(F)(F)F)c2)cc1C#Cc1cnc(N)c2cnccc12 = -20.8
CCOC(=O)C(=Cc1cccc(C#N)c1)C(=O)OCC = 85.8
CS(=O)(=O)Cc1cnc(C2OCCO2)s1 = 97.8
CCn1cc(C2=C(c3cn(C)c4ncccc34)C(=O)NC2=O)c2cccnc21 = 86.3
Cn1cccc1/C=C1\C(=O)Nc2ccccc21 = 56.6

Request: Bench note: what growth did `COc1cccc(/C=C2\COc3ccc(O)cc3C2=O)c1` show?
Response: 96.6

* * *

# System: SK-OV-3 ovarian
# test-details: NCI-60 one-dose screen, 48 h
# conditions: 10 µM unless noted
This is part of a sample that, as a whole, favours compounds with a hit. Of some 83,000 tested, about 20% had one in any assay. Calls of active or inactive are those of the source. Rule for the calls: active = growth percent below 10; inactive = the rest.
# output must be one of Y = active, N = inactive

O=C1c2cc3c(cc2-c2c1c1ccc(Cl)cc1c(=O)n2C[C@H](O)CO)OCO3 = Y
Cc1ccc(O)c(NC(=O)c2ccc(CNc3ccnc(C(F)(F)F)c3)cc2)c1 = N
FC(F)(F)c1[nH]ncc1-c1nc2c(N3CCCCC3)cc3[nH]ncc3c2c2c1CCCC2 = Y
COc1ccc2cc(Cn3cc[n+](Cc4ccc5ccccc5c4)c3)ccc2c1 = N
O=C(CCCCNC(=O)c1cc(=O)c(O)co1)Nc1ccccc1 = N
COc1cc(Nc2c3ccc(Cl)cc3nc3ccc(OC)cc23)c2ncccc2c1 = N

Request: For this compound, state the assay outcome: `CN1CCN(CCCOC(=O)c2c3c(n4ccccc24)C(=O)c2ncccc2C3=O)CC1`
Response: Y

Request: For this compound, state the assay outcome: `Cc1c(Cl)cccc1C(=O)Nc1nc2c(s1)CN(C(=O)Nc1cccc(C(F)(F)F)c1)CC2`
Response: N

Request: For this compound, state the assay outcome: `COc1cccc(/C=C/C(=O)c2cc3c(N)c(C(=O)Nc4ccccc4C)sc3nc2C)c1`
Response: N

Request: For this compound, state the assay outcome: `COc1cc(-c2nc(SCCC(C)C)nc(N3CCOCC3)c2C#N)cc(OC)c1OC`
Response: N

Request: For this compound, state the assay outcome: `COc1ccc(OC)c(-c2cn3nc(-c4c[nH]c5ccc(Br)cc45)sc3n2)c1`
Response: N

Request: For this compound, state the assay outcome: CCN1C(=O)N(CC)C2C1NN=c1s/c(=C\c3cc4ccccc4[nH]3)c(=O)n12 (stereo not given)
Response: N

Request: For this compound, state the assay outcome: `Brc1ccc(-c2cnc3nonc3n2)cc1`
Response: N

* * *

Quick reference: growth of the listed items.
# Tested on: 786-0 renal
# test-details: NCI-60 one-dose screen, 48 h (100 = growth as untreated, 0 = no growth, -100 = all killed)
# conditions: 10 µM unless noted
Compounds without any hit were thinned out: in the full panel of roughly 83,000, 20% have a hit.
Please state the figure in %; there is no need to write the unit.

Below, each entry is followed by its recorded growth result.
CC1(C)CCC(S(=O)(=O)c2ccc3c(c2)/C(=N\O)c2cc(S(=O)(=O)N4CCN(c5ccc(F)cc5O)CC4)ccc2-3)CC1 = -89.9
O=C(O)c1cccc(N/C=C/C(=O)c2cc3cc(Br)ccc3oc2=O)c1 = 99.4
CC(=O)N(Cc1ccccc1)c1nc2ccc(O)c(CN(C)C)c2s1 = 97.6
C=CCN=C(N)SCCCCCCSC(N)=NCC=C = 92.2

Request: Bench note: what growth did CCC(C)Nc1ccc(NC(C)CC)cc1 (stereo not given) show?
Response: 74

Request: Bench note: what growth did `COc1ccc(/C=C/C(=O)c2cc3c(N)c(C(=O)Nc4ccc(OC)cc4)sc3nc2C)cc1` show?
Response: 27.7

Request: Bench note: what growth did `Cc1cc(C)cc(Nc2ccc([N+](=O)[O-])c(NCCN3CCOCC3)n2)c1` show?
Response: 8.13

* * *

# System: SN12C renal
# test-details: NCI-60 one-dose screen, 48 h (100 = growth as untreated, 0 = no growth, -100 = all killed)
# conditions: 10 µM unless noted
Compounds without any hit were thinned out: in the full panel of roughly 83,000, 20% have a hit.
property: growth (%)
Please state the figure in %; there is no need to write the unit.

Below, each entry is followed by its recorded growth result.
CCCCC(=O)Nc1ncc(Cc2ccccc2Cl)s1 = 42.4
C/C(=C(/c1ccc(Cl)cc1)c1ccc(OCCCN(C)C)cc1)c1ccc(Cl)cc1 = 93.9
CC(C)c1ccc(C(=O)Nc2sc3cc(O)ccc3c2C#N)cc1 = 34.2
O=C1Nc2ccccc2C2c3cccn3-c3ccccc3N12 (stereo not given) = 90.3

Request: Recorded growth for `COc1ccc2nc(SCC(=O)Nc3ccccc3C)[nH]c2c1` with SN12C renal, please?
Response: 95.2

Request: Recorded growth for `CS(=O)(=O)Nc1cncc(-c2ccc3ncnc(Nc4ccc(F)c(Cl)c4)c3c2)c1` with SN12C renal, please?
Response: 33.9

Request: Recorded growth for O=C(/C=C/C12c3ccccc3C(c3ccccc31)C1C(=O)NC(=O)C12)c1ccc(F)cc1 (stereo not given) with SN12C renal, please?
Response: 11.2

Request: Recorded growth for CCN1C(=O)N(CC)C2C1NN=c1s/c(=C\c3ccccc3Br)c(=O)n12 (stereo not given) with SN12C renal, please?
Response: 24.8

Request: Recorded growth for CC(O)c1ncc(/C=C2\SC(=S)N(Cc3ccccc3)C2=O)s1 (stereo not given) with SN12C renal, please?
Response: 110

Request: Recorded growth for `Cc1ncc(C(=O)Nc2ccc(CN3CCN(C)CC3)c(C(F)(F)F)c2)cc1C#Cc1cnc(N)c2cnccc12` with SN12C renal, please?
Response: 11.7
